Values compiled from paper PMC5486114.

Recorded IC50 values for a group of compounds are listed next.
target_or_test_system: T1, Human recombinant FGF-1 (Homo sapiens, UniProt P05230)
T1 construct: Human recombinant FGF-1 consisting of 141 residues; purchased Peprotech; host or cells: E. coli
T1 sequence (P05230 with tags, fused parts or gaps limits assumed): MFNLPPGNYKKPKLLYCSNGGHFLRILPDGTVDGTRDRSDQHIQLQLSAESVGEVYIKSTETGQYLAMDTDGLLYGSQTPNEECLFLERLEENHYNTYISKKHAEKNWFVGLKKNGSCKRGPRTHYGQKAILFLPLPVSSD
measurement_notes: IC50 by selective T1 (T1sel) NMR at different ligand concentrations
Assay type: binding
measurement_parameters: T1sel method; 20 μM protein, ligand 80-640 μM
Expressed in µM, but write only the number.

Field: example entries. Status: answers known.
{"item_smiles": "CC(C)O[C@H]1O[C@H](CO)[C@@H](O[C@@H]2O[C@@H](C(=O)O)[C@@H](O[C@H]3O[C@H](COS(=O)(=O)O)[C@@H](O)[C@H](O)[C@H]3NS(=O)(=O)O)[C@H](O)[C@H]2OS(=O)(=O)O)[C@H](O)[C@H]1NS(=O)(=O)O", "target_or_test_system": "T1, Human recombinant FGF-1 (Homo sapiens, UniProt P05230)", "endpoint_label": "IC50", "recorded_measurement": 50.6}
{"item_smiles": "CC(=O)N[C@H]1[C@@H](OC(C)C)O[C@H](CO)[C@@H](O[C@@H]2O[C@@H](C(=O)O)[C@@H](O[C@H]3O[C@H](COS(=O)(=O)O)[C@@H](O)[C@H](O)[C@H]3NS(=O)(=O)O)[C@H](O)[C@H]2OS(=O)(=O)O)[C@@H]1O", "target_or_test_system": "T1, Human recombinant FGF-1 (Homo sapiens, UniProt P05230)", "endpoint_label": "IC50", "recorded_measurement": 181}
{"item_smiles": "CC(C)O[C@H]1O[C@H](COS(=O)(=O)O)[C@@H](O[C@@H]2O[C@@H](C(=O)O)[C@@H](O[C@H]3O[C@H](COS(=O)(=O)O)[C@@H](O)[C@H](O)[C@H]3NS(=O)(=O)O)[C@H](O)[C@H]2OS(=O)(=O)O)[C@H](O)[C@H]1NS(=O)(=O)O", "target_or_test_system": "T1, Human recombinant FGF-1 (Homo sapiens, UniProt P05230)", "endpoint_label": "IC50", "recorded_measurement": 49.2}
{"item_smiles": "CC(C)O[C@H]1O[C@H](COS(=O)(=O)O)[C@@H](O[C@@H]2O[C@@H](C(=O)O)[C@@H](O[C@H]3O[C@H](CO)[C@@H](O)[C@H](O)[C@H]3NS(=O)(=O)O)[C@H](O)[C@H]2OS(=O)(=O)O)[C@H](O)[C@H]1NS(=O)(=O)O", "target_or_test_system": "T1, Human recombinant FGF-1 (Homo sapiens, UniProt P05230)", "endpoint_label": "IC50", "recorded_measurement": 15.4}

So the reported IC50 for CC(=O)N[C@H]1[C@@H](OC(C)C)O[C@H](CO)[C@@H](O[C@@H]2O[C@@H](C(=O)O)[C@@H](O[C@H]3O[C@H](CO)[C@@H](O)[C@H](O)[C@H]3NS(=O)(=O)O)[C@H](O)[C@H]2OS(=O)(=O)O)[C@@H]1O , on T1, Human recombinant FGF-1 (Homo sapiens, UniProt P05230), turned out to be 132

The compound CC(=O)N[C@H]1[C@@H](OC(C)C)O[C@H](COS(=O)(=O)O)[C@@H](O[C@@H]2O[C@@H](C(=O)O)[C@@H](O[C@H]3O[C@H](CO)[C@@H](O)[C@H](O)[C@H]3NS(=O)(=O)O)[C@H](O)[C@H]2OS(=O)(=O)O)[C@@H]1O , when measured on T1, Human recombinant FGF-1 (Homo sapiens, UniProt P05230), yielded IC50 of 84.7

Observed IC50 on T1, Human recombinant FGF-1 (Homo sapiens, UniProt P05230), entry CC(=O)N[C@H]1[C@@H](OC(C)C)O[C@H](COS(=O)(=O)O)[C@@H](O[C@@H]2O[C@@H](C(=O)O)[C@@H](O[C@H]3O[C@H](COS(=O)(=O)O)[C@@H](O)[C@H](O)[C@H]3NS(=O)(=O)O)[C@H](O)[C@H]2OS(=O)(=O)O)[C@@H]1O , equals 26.1

Field IC50 (T1, Human recombinant FGF-1 (Homo sapiens, UniProt P05230)), entry CC(C)O[C@H]1O[C@H](CO)[C@@H](O[C@@H]2O[C@@H](C(=O)O)[C@@H](O[C@H]3O[C@H](CO)[C@@H](O)[C@H](O)[C@H]3NS(=O)(=O)O)[C@H](O)[C@H]2OS(=O)(=O)O)[C@H](O)[C@H]1NS(=O)(=O)O : 46.7
